- experiment.notes: Plasma protein binding by Centrifree ultrafiltration
- Assay type: in vitro ADME
- condition.notes: male, Wistar WU, rat, plasma (from dosed rats and from spiked blank blood); linear; not affected by co-administration of tariquidar
quantity.kind: fraction unbound at 30 min
A bare number is all that is needed in reply.

Consider the molecule shown here: C=C[C@H]1C[N@@]2CC[C@H]1C[C@@H]2[C@@H](O)c1ccnc2ccc(OC)cc12 What is its recorded fraction unbound at 30 min? 0.135

These data points were gathered from paper PMC4269305.
